Each recorded value in this set is attributed to the supplement of paper PMC7600603.

Entries and their measured drug sensitivity score follow.
Test system: DLD1 NRF2-WT
Assay: drug sensitivity score (DSS) cytotoxicity (DSS score); higher = more toxic; extreme values may be limits of the assay
Conditions: 72 h; CellTox Green cytotoxicity
In your answer, state the number alone without any accompanying words.

{"columns": ["Compound", "Observable", "Measured"],
 "data": [
  ["CCN(CC)CCNC(=O)c1c(C)[nH]c(/C=C2\\C(=O)Nc3ccc(F)cc32)c1C [Sunitinib]", "drug sensitivity score", 0],
  ["CC/C(=C(\\c1ccccc1)c1ccc(OCCN(C)C)cc1)c1ccccc1 [Tamoxifen]", "drug sensitivity score", 0]
]}

Measured drug sensitivity score (DLD1 NRF2-WT), entry Nc1nc(Nc2ccc3c(c2)CC[C@@H](N2CCCC2)CC3)nn1-c1cc2c(nn1)-c1ccccc1CCC2 [BGB324] : 0

Measured drug sensitivity score (DLD1 NRF2-WT), entry CC(=O)c1cnc2ccc(-c3cc(Cl)c(O)c(Cl)c3)nc2c1N[C@H]1CC[C@H](CN(C)C)CC1 [OTS167] : 0.6

Measured drug sensitivity score (DLD1 NRF2-WT), entry CC(C)[C@@H](CS(=O)(=O)C(C)C)N1C(=O)[C@@](C)(CC(=O)O)C[C@H](c2cccc(Cl)c2)[C@H]1c1ccc(Cl)cc1 [AMG-232] : 0
